Hey, just so you know, these numbers are from PubChem BioAssay AID624171.

# EXPERIMENT_NOTES: qHTS of Nrf2 Activators; further: nearly all actives have a fitted effect of over 65% in size
# CONDITION_DESCRIPTION: AREc32 ARE-luciferase reporter (MCF7-derived line), luminescence, 24 h; series mostly up to 46.1 µM
# Experimental: Many diseases have some form of oxidative stress injury and ties to inflammation, causing a host of problems for the patient. The antioxidant response element (ARE) plays an important role in alleviating the harmful effects of oxidative stress. […] 5 uL of 1000 cells/well of AREc32_Fluc cells are seeded into 1536-well plate in OPTI-MEM medium with 5% FBS. […] After the addition of 2.5 uL of Steady-Glo. the plates are kept at RT for 30 min, before they are read on the ViewLux.
About 1,200 (0.29%) of roughly 410,000 compounds were called active. Not shown: some 2% with an inconclusive outcome. The call rests on the fitted dose curve; in most records, active means well fitted activation curve with a large enough effect; inconclusive means small, poorly fitted or top-dose-only effect; inactive means flat fitted curve, though single readings scatter. This is one part of a sample in which actives are shown more often than they occur.
Pick one and only one: active, inactive

Q: Which outcome was assigned to CCOc1ccccc1C(=O)Nc1ccc2c(c1)N(C)C(=O)c1ccccc1S2 in this test?
Ans: inactive

Q: Test call for this compound, please: Cc1nc2ccc(S(=O)(=O)NC(C(=O)NCc3ccccc3Cl)C(C)C)cc2s1 (stereo not given)
Ans: inactive

Q: Answer briefly: the call reported for O=C(c1ccc(F)cc1)n1c(=S)nc2ccccn21 in this assay.
Ans: active

Q: Assay outcome for Cc1cc(C)c(-c2n[nH]c3c2C(c2ccccc2F)N(CCO)C3=O)c(O)c1 (stereo not given) : what was it?
Ans: inactive

Q: Entry O=C(Nc1c(-c2ccc(F)cc2)nc2ccccn12)c1cccc(F)c1 : call = ?
Ans: inactive
